Cited source for all entries: patent US20250368616A1

- Test system: Ba/F3 EGFR Del19/C797S cells
- measurement notes: Cell proliferation inhibition assay (Cell Titer-Glo), Ba/F3 EGFR Del19/C797S
- Assay type: cell-based
- measurement context: 72 hours, read-out: Ba/F3 EGFR Del19_C797S IC50
So I've got a bunch of molecules here, and I need their IC50 values.
Numbers only, in nM.

Cc1nn(C)cc1-c1nccc(Nc2cc3c(C(C)C)ccc(N4CC(N5CCCS5(=O)=O)C4)c3cn2)n1    51
COCCn1cc(-c2nccc(Nc3cc4c(C(C)C)ccc(N5C[C@H](CS(C)(=O)=O)[C@H]5C)c4cn3)n2)c(Cl)n1    8.5

Value of IC50 reported for the molecule CC(C)c1ccc(N2C[C@H](CS(C)(=O)=O)[C@H]2C)c2cnc(Nc3ccnc(-c4cn(C5CCOCC5)nc4Cl)n3)cc12 is 27
